B1: HDV Ribozyme (parent)
chain: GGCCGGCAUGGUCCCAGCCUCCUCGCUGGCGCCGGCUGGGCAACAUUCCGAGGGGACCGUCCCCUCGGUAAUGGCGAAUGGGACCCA

Variants of: B1
Assay Overview: self-cleavage, relative activity (ratio to wild type); higher = more cleavage; co-transcriptional
Value Kind: self-cleavage

GGCCGGCAUGGUCCCAGCCUCCUCGCUGGCGCCGGCUGGGCAACAUUCCGAGGGGACCGUCCCCACGGUAAUGGCGAAUAGGACCCA = 0.201
GGCCGGCAUGGUCCCAGCCUCCUCGCUGGCGCCGGCUGGGCAACAUUCCGAGGGGACCGUCGCCUCGGUAAUGGCGAAUGGGAACCA = 0.712
GGCCGACAUGGUCCCAGCCUCCUCGCUGGCGCCGGCUGGGCAACAUUCCUAGGGGACCGUCCCCUCGGUAAUGGCGAAUGGGACCCA = 0.708
GGCCGGCAUGGUCACAGCCUCAUCGCUGGCGCCGGCUGGGCAACAUUCCGAGGGGACCGUCCCCUCGGUAAUGGCGAAUGGGACCCA = 0.0692
GGCCGGCAUGGUCCCAGCCUCCUCGCUGGCGCCGGCUGGGCAACAUUCCGAGUGGACCGUCCCCUCGGUAAUGGCGAAUGCGACCCA = 0.385
GGCUGGCAUGGUCCCAGCCUCCUCGCUGGCGCCGGCUGGGCAACAUUCCGAGGGGACCCUCCCCUCGGUAAUGGCGAAUGGGACCCA = 0.81
GGCCCGCAUGGUCCCAGCCUCCUCGCUGGCGCCGGCUGGGCAACAUUCCGAGGGGACCUUCCCCUCGGUAAUGGCGAAUGGGACCCA = 0.128
GGCCGGCACGGUCCCAGCCUCCUCGCUGGCGCCGGCUGGGCAACAUUCCGAGGGGACCGUCCCCUCGGUAAUUGCGAAUGGGACCCA = 0.383
GGCCGGCAUGGUCCCAGCCUCCUCGCUGGCGCCGGCUGGGCAACAUUCCGAGGGGACCGUCCCCGCCGUAAUGGCGAAUGGGACCCA = 0.156
GGCCGGCAUGGUCCUAGCGUCCUCGCUGGCGCCGGCUGGGCAACAUUCCGAGGGGACCGUCCCCUCGGUAAUGGCGAAUGGGACCCA = 0.0997
GGCCGGCAUGGUCCCAGCCUCCUCGCUGGCGCCGGCUGGGCAAUGUUCCGAGGGGACCGUCCCCUCGGUAAUGGCGAAUGGGACCCA = 0.739
GGCCGUCAUGGUCCCAGCCUCCUCGCUGGCGCCGGCUGGGCAACAUUCCGAGGGGACCGUCCCCUCGGUAAUGACGAAUGGGACCCA = 0.16
